Molecular target: CYP2C9 (Homo sapiens)
Sequence (P11712 whole entry): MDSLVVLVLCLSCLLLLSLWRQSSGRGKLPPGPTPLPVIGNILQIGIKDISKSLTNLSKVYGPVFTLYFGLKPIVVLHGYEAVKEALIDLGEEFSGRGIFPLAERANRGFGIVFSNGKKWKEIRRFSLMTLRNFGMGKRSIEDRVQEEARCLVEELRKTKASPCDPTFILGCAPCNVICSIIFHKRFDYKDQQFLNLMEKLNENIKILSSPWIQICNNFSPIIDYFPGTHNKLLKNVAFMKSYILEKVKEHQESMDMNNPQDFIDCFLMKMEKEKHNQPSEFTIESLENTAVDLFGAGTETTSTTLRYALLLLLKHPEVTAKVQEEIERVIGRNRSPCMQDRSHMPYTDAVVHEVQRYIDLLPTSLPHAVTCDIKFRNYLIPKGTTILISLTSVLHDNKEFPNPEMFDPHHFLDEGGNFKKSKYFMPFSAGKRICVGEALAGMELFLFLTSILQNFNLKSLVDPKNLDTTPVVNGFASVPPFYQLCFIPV
Assay: in vitro
Details: human, pH 7.4
From the text: Assay 4: CYP450 Inhibition
result type: inhibition at 30 min, 10 μM (%)

Guide cases for inhibition at 30 min, 10 μM, answers given:
CCN(C[C@@H](O)[C@H](Cc1ccccc1)NC(=O)OCc1cncs1)C(=O)c1ccc2nc(N(C)CC)oc2c1 [Compound C29] | 99
Cc1nc2ccc(C(=O)N(CC(C)C)C[C@@H](O)[C@H](Cc3ccccc3)NC(=O)OCc3cncs3)cc2o1 [Compound C40] | 89
CC(C)CN(C[C@@H](O)[C@H](Cc1ccccc1)NC(=O)OCc1cncs1)C(=O)c1ccc2ncoc2c1 [Compound C38] | 93
C#CCN(C[C@@H](O)[C@H](Cc1ccccc1)NC(=O)OCc1cncs1)C(=O)c1ccc2nc(N(C)CC)oc2c1 [Compound C35] | 96
CCN(C)c1nc2ccc(C(=O)N(CC3CCCCC3)C[C@@H](O)[C@H](Cc3ccccc3)NC(=O)OCc3cncs3)cc2o1 [Compound C32] | 98

a: CCc1nc2ccc(C(=O)N(CC(C)C)C[C@@H](O)[C@H](Cc3ccccc3)NC(=O)OCc3cncs3)cc2o1 [Compound C39]
b: CC(C)CN(C[C@@H](O)[C@H](Cc1ccccc1)NC(=O)OCc1cncs1)C(=O)c1ccc2nc(NCCN(C)C)oc2c1 [Compound C16]
IN: a or b : whose inhibition at 30 min, 10 μM is greater? // caller expects the label of the chosen entry
OUT: a
(a: 95%, b: 34%)
